Provenance of the data: paper PMC10427982

- measurement-protocol: Multisite microdialysis pharmacokinetics after molnupiravir
- Assay type: in vivo, rat
- conditions: female, Sprague-Dawley, rat, amniotic fluid, iv, 100 mg/kg
reported-property: MRT (h)
Numeric answer only, unit h assumed.

Could you tell me which MRT is on file for CC(C)C(=O)OC[C@H]1O[C@@H](n2ccc(NO)nc2=O)[C@H](O)[C@@H]1O [Molnupiravir] ? 1.73

* * *

- measurement-protocol: Multisite microdialysis pharmacokinetics after molnupiravir
- Format: in vivo, rat
- conditions: female, Sprague-Dawley, rat, fetus dialysate, intravenous, 100 mg/kg
reported-property: concentration at 140 min (ng/mL)
Kindly answer with a numeric value in ng/mL, unit omitted.

Which concentration at 140 min reading was recorded for the molecule CC(C)C(=O)OC[C@H]1O[C@@H](n2ccc(NO)nc2=O)[C@H](O)[C@@H]1O [Molnupiravir] ? 3.02

* * *

- measurement-protocol: Multisite microdialysis pharmacokinetics after molnupiravir
- Assay type: in vivo, rat
- conditions: female, Sprague-Dawley, rat, amniotic fluid, iv, 100 mg/kg, with NBMPR (ENT inhibitor) 10 mg/kg i.v., co-administered
reported-property: AUC(0-inf) (ng·h/mL)
Expressed in ng·h/mL, but write only the number.

Data request, read-out AUC(0-inf), for CC(C)C(=O)OC[C@H]1O[C@@H](n2ccc(NO)nc2=O)[C@H](O)[C@@H]1O 2770

* * *

- measurement-protocol: Multisite microdialysis pharmacokinetics after molnupiravir
- Assay type: in vivo, rat
- conditions: female, Sprague-Dawley, rat, blood dialysate, intravenous, 100 mg/kg
reported-property: concentration at 140 min (ng/mL)
Kindly answer with a numeric value in ng/mL, unit omitted.

Entry CC(C)C(=O)OC[C@H]1O[C@@H](n2ccc(NO)nc2=O)[C@H](O)[C@@H]1O : reported concentration at 140 min = ? 18.2

* * *

- measurement-protocol: Multisite microdialysis pharmacokinetics after molnupiravir
- Format: in vivo, rat
- conditions: female, Sprague-Dawley, rat, fetus, iv, 100 mg/kg, with NBMPR (ENT inhibitor) 10 mg/kg i.v., co-administered
reported-property: AUC(0-inf)
For clarity, give the value followed by its unit.

Which AUC(0-inf) is reported for this molecule? CC(C)C(=O)OC[C@H]1O[C@@H](n2ccc(NO)nc2=O)[C@H](O)[C@@H]1O 1.65 µg·h/mL

* * *

- measurement-protocol: Multisite microdialysis pharmacokinetics after molnupiravir
- Format: in vivo, rat
- conditions: female, Sprague-Dawley, rat, placenta, iv, 100 mg/kg
reported-property: MRT (h)
Your answer is read as h, so omit the unit and give the number.

// returns reported MRT for input CC(C)C(=O)OC[C@H]1O[C@@H](n2ccc(NO)nc2=O)[C@H](O)[C@@H]1O [Molnupiravir] 1.17

* * *

- measurement-protocol: Multisite microdialysis pharmacokinetics after molnupiravir
- Type: in vivo, rat
- conditions: female, Sprague-Dawley, rat, amniotic fluid dialysate, iv, 100 mg/kg
reported-property: AUC(0-inf)

Could you tell me which AUC(0-inf) is on file for CC(C)C(=O)OC[C@H]1O[C@@H](n2ccc(NO)nc2=O)[C@H](O)[C@@H]1O [Molnupiravir] ? 4660 ng·h/mL

* * *

- measurement-protocol: Multisite microdialysis pharmacokinetics after molnupiravir
- Type: in vivo, rat
- conditions: female, Sprague-Dawley, rat, blood, iv, 100 mg/kg, with NBMPR (ENT inhibitor) 10 mg/kg i.v., co-administered
reported-property: Cmax (µg/mL)
The reply should contain only the number, in µg/mL.

Field request: Cmax | item: CC(C)C(=O)OC[C@H]1O[C@@H](n2ccc(NO)nc2=O)[C@H](O)[C@@H]1O [Molnupiravir] 261

* * *

- measurement-protocol: Multisite microdialysis pharmacokinetics after molnupiravir
- Type: in vivo, rat
- conditions: female, Sprague-Dawley, rat, amniotic fluid dialysate, intravenous, 100 mg/kg
reported-property: concentration at 60 min
# output: number + unit

So what does the record say about concentration at 60 min for CC(C)C(=O)OC[C@H]1O[C@@H](n2ccc(NO)nc2=O)[C@H](O)[C@@H]1O ? 1.48 ng/mL

* * *

- measurement-protocol: Multisite microdialysis pharmacokinetics after molnupiravir
- Format: in vivo, rat
- conditions: female, Sprague-Dawley, rat, amniotic fluid, iv, 100 mg/kg, with NBMPR (ENT inhibitor) 10 mg/kg i.v., co-administered
reported-property: MRT (h)
Answer format: numeric, h implied, no suffix.

Could you share which MRT value was measured for CC(C)C(=O)OC[C@H]1O[C@@H](n2ccc(NO)nc2=O)[C@H](O)[C@@H]1O ? 1.47

* * *

- measurement-protocol: Multisite microdialysis pharmacokinetics after molnupiravir
- Format: in vivo, rat
- conditions: female, Sprague-Dawley, rat, placenta, iv, 100 mg/kg, with NBMPR (ENT inhibitor) 10 mg/kg i.v., co-administered
reported-property: AUC(0-inf) (ng·h/mL)
Give the quantity in ng·h/mL, number only.

Would you kindly share the measured AUC(0-inf) for CC(C)C(=O)OC[C@H]1O[C@@H](n2ccc(NO)nc2=O)[C@H](O)[C@@H]1O [Molnupiravir] ? 1880

* * *

- measurement-protocol: Multisite microdialysis pharmacokinetics after molnupiravir
- Type: in vivo, rat
- conditions: female, Sprague-Dawley, rat, fetus, iv, 100 mg/kg, with NBMPR (ENT inhibitor) 10 mg/kg i.v., co-administered
reported-property: Cmax (ng/mL)
Lab book: enter the figure in ng/mL, no units written.

Bench note: what Cmax did CC(C)C(=O)OC[C@H]1O[C@@H](n2ccc(NO)nc2=O)[C@H](O)[C@@H]1O show? 2410

* * *

- measurement-protocol: Multisite microdialysis pharmacokinetics after molnupiravir
- Type: in vivo, rat
- conditions: female, Sprague-Dawley, rat, amniotic fluid (relative to blood), iv, 100 mg/kg
reported-property: Kp
Field format: numeric only.

Suppose we examine the molecule CC(C)C(=O)OC[C@H]1O[C@@H](n2ccc(NO)nc2=O)[C@H](O)[C@@H]1O ; what Kp value has been reported? 0.05

* * *

- measurement-protocol: Multisite microdialysis pharmacokinetics after molnupiravir
- Format: in vivo, rat
- conditions: female, Sprague-Dawley, rat, placenta dialysate, intravenous, 100 mg/kg
reported-property: concentration at 80 min (ng/mL)
Give your result in ng/mL as a bare value.

Give its concentration at 80 min value. Item: CC(C)C(=O)OC[C@H]1O[C@@H](n2ccc(NO)nc2=O)[C@H](O)[C@@H]1O [Molnupiravir] 15.1

* * *

- measurement-protocol: Multisite microdialysis pharmacokinetics after molnupiravir
- Assay type: in vivo, rat
- conditions: female, Sprague-Dawley, rat, placenta (relative to blood), iv, 100 mg/kg
reported-property: Kp

Recorded Kp of CC(C)C(=O)OC[C@H]1O[C@@H](n2ccc(NO)nc2=O)[C@H](O)[C@@H]1O , please. 0.02

* * *

- measurement-protocol: Multisite microdialysis pharmacokinetics after molnupiravir
- Assay type: in vivo, rat
- conditions: female, Sprague-Dawley, rat, amniotic fluid dialysate, iv, 100 mg/kg
reported-property: Cmax (ng/mL)
Express it in ng/mL; write the number only.

Item CC(C)C(=O)OC[C@H]1O[C@@H](n2ccc(NO)nc2=O)[C@H](O)[C@@H]1O has what recorded Cmax? 2110

* * *

- measurement-protocol: Multisite microdialysis pharmacokinetics after molnupiravir
- Format: in vivo, rat
- conditions: female, Sprague-Dawley, rat, blood dialysate, iv, 100 mg/kg
reported-property: Cmax (µg/mL)
Write the answer as a number in µg/mL, unit excluded.

Would you kindly share the measured Cmax for CC(C)C(=O)OC[C@H]1O[C@@H](n2ccc(NO)nc2=O)[C@H](O)[C@@H]1O [Molnupiravir] ? 219

* * *

- measurement-protocol: Multisite microdialysis pharmacokinetics after molnupiravir
- Assay type: in vivo, rat
- conditions: female, Sprague-Dawley, rat, blood, iv, 100 mg/kg
reported-property: MRT

Entry under review: CC(C)C(=O)OC[C@H]1O[C@@H](n2ccc(NO)nc2=O)[C@H](O)[C@@H]1O [Molnupiravir] . Reported MRT? 16 min

* * *

- measurement-protocol: Multisite microdialysis pharmacokinetics after molnupiravir
- Format: in vivo, rat
- conditions: female, Sprague-Dawley, rat, blood, iv, 100 mg/kg, with NBMPR (ENT inhibitor) 10 mg/kg i.v., co-administered
reported-property: clearance (mL/min/kg)
Write the value in mL/min/kg as a bare number.

Which clearance value belongs to CC(C)C(=O)OC[C@H]1O[C@@H](n2ccc(NO)nc2=O)[C@H](O)[C@@H]1O [Molnupiravir] ? 59.2

* * *

- measurement-protocol: Multisite microdialysis pharmacokinetics after molnupiravir
- Type: in vivo, rat
- conditions: female, Sprague-Dawley, rat, fetus, iv, 100 mg/kg, with NBMPR (ENT inhibitor) 10 mg/kg i.v., co-administered
reported-property: MRT (min)
Write it as a number; the unit min goes unstated.

Any idea what its MRT is? The molecule is CC(C)C(=O)OC[C@H]1O[C@@H](n2ccc(NO)nc2=O)[C@H](O)[C@@H]1O [Molnupiravir] 50

* * *

- measurement-protocol: Multisite microdialysis pharmacokinetics after molnupiravir
- Type: in vivo, rat
- conditions: female, Sprague-Dawley, rat, amniotic fluid, iv, 100 mg/kg, with NBMPR (ENT inhibitor) 10 mg/kg i.v., co-administered
reported-property: half-life
Just so you know, I need the unit written after the number.

Can you look up the measured half-life of CC(C)C(=O)OC[C@H]1O[C@@H](n2ccc(NO)nc2=O)[C@H](O)[C@@H]1O for me? 3.12 h
